- Test system: OVCAR-3 ovarian
- protocol-summary: NCI-60 one-dose screen, 48 h (100 = growth as untreated, 0 = no growth, -100 = all killed)
- cond: 10 µM unless noted
About 83,000 compounds went through this panel and 20% of them were active in at least one assay; those are over-represented in the sample as a whole.
One threshold, 40%, splits the recorded growth values: lower ones are 1 (yes), equal or higher ones are 0 (no).

| compound | cat |
| --- | --- |
| NS(=O)(=O)c1ccc(-n2nc(-c3ccccc3)ccc2=O)cc1 | 0 (no) |
| Cc1nccc2c3ccc(OCc4cn(-c5ccc(Cl)cc5)nn4)cc3n(CC(C)C)c12 | 1 (yes) |
| CC(C)(C)c1ccc2oc(=O)n(SC(Cl)(Cl)Cl)c2c1 | 0 (no) |
| COC(=O)c1cc2c3c(cc(O)c2[nH]1)N(C(=O)C1Cc2cc(OC)c(OC)c(OC)c2N1)CC3CCl (stereo not given) | 1 (yes) |
| COc1cc(C2=NN(C=O)C(c3cccc(Nc4ccnc5cc(C(F)(F)F)ccc45)c3)C2)cc(OC)c1OC (stereo not given) | 0 (no) |
